Molecular target: MBP-FoxP3dN (Mus musculus, UniProt Q99JB6 188-423)
Sequence: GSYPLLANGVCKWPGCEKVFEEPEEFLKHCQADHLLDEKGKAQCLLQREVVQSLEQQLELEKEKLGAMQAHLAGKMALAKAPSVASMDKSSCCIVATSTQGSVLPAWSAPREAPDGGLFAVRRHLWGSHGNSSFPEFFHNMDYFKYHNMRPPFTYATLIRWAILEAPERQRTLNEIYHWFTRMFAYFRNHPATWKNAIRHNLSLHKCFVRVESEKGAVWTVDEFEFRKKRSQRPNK
Assay: PD-seq (MBP pull-down with sequencing); 20 mM Tris-HCl pH 7.5, 100 mM NaCl, 1.5 mM MgCl2, 0.4 uM protein, 0.1 uM dsDNA library, 30 min, room temperature, amylose pull-down; high values mean tight binding
Conditions: protein: recombinant; tags: His6-MBP; chain copies: 2; dsDNA, one strand shown
Over roughly 16,000 sequences, “rpm ratio (pull-down/input)” has its median near 0.5; the highest 2% begin near 5.5. Only a selection was taken, and the highest values are over-represented in it overall.
Measured endpoint: binding signal

Recorded results for 4 sequences are shown here.
GATGATTGTTCTCCCAGCTGATGAATTGCATCCTTCGAGTAAACAAATTTTCCTAATCTTTCTGTTCAAGCGCCATCTAC
5.53 RPM ratio (pull-down/input)
GATGATTGTTCTCCCAGCTGATGAATTGATCAAGTCGAGTAAACAAATTTTCCTAATCTTTCTGTTCAAGCGCCATCTAC
0.245 RPM ratio (pull-down/input)
GATGATTGTTCTCCCAGCTGATGAATTCTATTAATCGAGTAAACAAATTTTCCTAATCTTTCTGTTCAAGCGCCATCTAC
0.561 RPM ratio (pull-down/input)
GATGATTGTTCTCCCAGCTGATGAATTTGCATCTTCGAGTAAACAAATTTTCCTAATCTTTCTGTTCAAGCGCCATCTAC
7.16 RPM ratio (pull-down/input)

Ask: Recall the reported binding signal of GATGATTGTTCTCCCAGCTGATGAATTATTAGCTTCGAGTAAACAAATTTTCCTAATCTTTCTGTTCAAGCGCCATCTAC on MBP-FoxP3dN (Mus musculus, UniProt Q99JB6 188-423) and write it down.
Reply: 0.671 RPM ratio (pull-down/input)

Ask: Recall the reported binding signal of GATGATTGTTCTCCCAGCTGATGAATTCCTTGCATCGAGTAAACAAATTTTCCTAATCTTTCTGTTCAAGCGCCATCTAC on MBP-FoxP3dN (Mus musculus, UniProt Q99JB6 188-423) and write it down.
Reply: 0.828 RPM ratio (pull-down/input)
